Reported Ki values are given for each entry in this list.
# system.name: UniProt P46098
# run.description: Displacement of [3H]granisetron from 5HT3A receptor expressed in HEK293 cells after 24 hrs by scintillation counting in presence of quipazine
# Type: cell-based
property.name: Ki

[[record]]
smi = "CNc1nc(N2CCN(C)CC2)nc2ccc(Cl)cc12"
property_name = "Ki"
endpoint_result = "1.12 nM"

[[record]]
smi = "CN1CCN(c2nc(N)c3ccccc3n2)CC1"
property_name = "Ki"
endpoint_result = "0.0513 nM"

[[record]]
smi = "CC(C)Nc1nc(N2CCN(C)CC2)nc2ccc(Cl)cc12"
property_name = "Ki"
endpoint_result = "166 nM"

[[record]]
smi = "CNc1nc(N2CC[C@H](N)C2)nc2ccc(Cl)cc12"
property_name = "Ki"
endpoint_result = "2340 nM"

[[record]]
smi = "CNc1nc(N2CC(N(C)C)C2)nc2ccc(Cl)cc12"
property_name = "Ki"
endpoint_result = "468 nM"

[[record]]
smi = "CNc1cc(N2CCN(C)CC2)nc2ccccc12"
property_name = "Ki"
endpoint_result = "13.5 nM"

[[record]]
smi = "CNc1nc(N2CCCN(C)CC2)nc2ccc(Cl)cc12"
property_name = "Ki"
endpoint_result = "18.2 nM"

[[record]]
smi = "CN1CCN(c2ccc3ccccc3n2)CC1"
property_name = "Ki"
endpoint_result = "0.457 nM"

[[record]]
smi = "CN1CCN(c2nc(N(C)C)c3cc(Cl)ccc3n2)CC1"
property_name = "Ki"
endpoint_result = "6.61 nM"

[[record]]
smi = "CN1CCN(c2nc3ccccc3c(=O)[nH]2)CC1"
property_name = "Ki"
endpoint_result = "46.8 nM"

[[record]]
smi = "CN1CCN(c2ncc3ccccc3n2)CC1"
property_name = "Ki"
endpoint_result = "1.35 nM"

[[record]]
smi = "CN1CCN(c2nc(NCc3ccccc3)c3cc(Cl)ccc3n2)CC1"
property_name = "Ki"
endpoint_result = "13.8 nM"

[[record]]
smi = "CN1CCN(c2cc3ccccc3c(N)n2)CC1"
property_name = "Ki"
endpoint_result = "219 nM"


---

Reported pKi values are given for each entry in this list.
# system.name: 5-hydroxytryptamine receptor 3A (Homo sapiens, UniProt P46098)
# Sequence (P46098 whole entry): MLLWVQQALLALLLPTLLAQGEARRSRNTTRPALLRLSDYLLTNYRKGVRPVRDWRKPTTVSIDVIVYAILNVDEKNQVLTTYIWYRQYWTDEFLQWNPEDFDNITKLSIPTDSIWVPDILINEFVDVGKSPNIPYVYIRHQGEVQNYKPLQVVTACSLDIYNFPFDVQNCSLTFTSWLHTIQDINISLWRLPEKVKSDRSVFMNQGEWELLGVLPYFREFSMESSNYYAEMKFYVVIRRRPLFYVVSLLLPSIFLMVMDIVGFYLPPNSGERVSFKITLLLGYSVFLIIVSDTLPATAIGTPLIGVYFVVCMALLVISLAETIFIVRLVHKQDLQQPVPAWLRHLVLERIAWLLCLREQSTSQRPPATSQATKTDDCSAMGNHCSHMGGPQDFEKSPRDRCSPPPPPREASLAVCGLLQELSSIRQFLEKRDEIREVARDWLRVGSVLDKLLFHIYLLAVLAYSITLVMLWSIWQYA
# run.description: Displacement of [3H]granisetron from 5HT3A receptor expressed in HEK293 cells after 24 hrs by scintillation counting in presence of quipazine
pKi: −log10 of the molar value.
property.name: pKi

[[record]]
molecule = "CN1CCN(c2cc(N)c3ccccc3n2)CC1"
endpoint_result = 8.84

[[record]]
molecule = "CN1CCN(c2ncc3cc(Cl)ccc3n2)CC1"
endpoint_result = 8.13

[[record]]
molecule = "CN1CCN(c2ccc3c(N)cccc3n2)CC1"
endpoint_result = 6.69

[[record]]
molecule = "CN1CCN(c2nc(NCCO)c3cc(Cl)ccc3n2)CC1"
endpoint_result = 7.83

[[record]]
molecule = "CN1CCN(c2ccc3ccccc3c2)CC1"
endpoint_result = 6.27

[[record]]
molecule = "CN1CCN(c2cnc3ccccc3c2)CC1"
endpoint_result = 6.39

[[record]]
molecule = "CNc1nc(NCCC2CCN(C)C2)nc2ccc(Cl)cc12 (configuration not stated)"
endpoint_result = 4.93


---

Reported Ki values are given for each entry in this list.
# system.name: UniProt:P46098
# run.description: Displacement of [3H]granisetron from 5HT3A receptor expressed in HEK293 cells after 24 hrs by scintillation counting in presence of quipazine
property.name: Ki (nM)

[[record]]
compound = "CN1CCN(c2nc(O)c3cc(Cl)ccc3n2)CC1"
property_name = "Ki"
endpoint_result = 575

[[record]]
compound = "CNc1nc(N2CC3CCCNC3C2)nc2ccc(Cl)cc12 (configuration not stated)"
property_name = "Ki"
endpoint_result = 3550

[[record]]
compound = "CNc1nc(N2CCN(C)CC2)nc2ccccc12"
property_name = "Ki"
endpoint_result = 2.95

[[record]]
compound = "CN1CCN(c2nc(NCc3ccoc3)c3cc(Cl)ccc3n2)CC1"
property_name = "Ki"
endpoint_result = 2.82

[[record]]
compound = "CN1CCN(c2nc(N)c3cc(Cl)ccc3n2)CC1"
property_name = "Ki"
endpoint_result = 12

[[record]]
compound = "CN1CCN(c2cnc3ccccc3n2)CC1"
property_name = "Ki"
endpoint_result = 4.68

[[record]]
compound = "CN1CCN(c2ccc3cccc(N)c3n2)CC1"
property_name = "Ki"
endpoint_result = 331

[[record]]
compound = "CN1CCN(c2nc(NCC3CCCCC3)c3cc(Cl)ccc3n2)CC1"
property_name = "Ki"
endpoint_result = 16600

[[record]]
compound = "CN1CCN(c2nc(NCCc3ccccc3)c3cc(Cl)ccc3n2)CC1"
property_name = "Ki"
endpoint_result = 79.4

[[record]]
compound = "CNc1nc(N2CCN(C)CC2)cc2ccccc12"
property_name = "Ki"
endpoint_result = 5.89

[[record]]
compound = "CN1CCN(c2nc(NCc3ccc(N)cc3)c3cc(Cl)ccc3n2)CC1"
property_name = "Ki"
endpoint_result = 2.69

[[record]]
compound = "CN1CCN(c2cc3ccccc3cn2)CC1"
property_name = "Ki"
endpoint_result = 1.62

